# System under test: recombinant soluble homotrimeric HA of A/chicken/Vietnam/NCVD-016/08 (H5N1) (Influenza A virus A/chicken/Vietnam/NCVD-016/2008(H5N1))
# Test summary: HA microarray, BCC supernatant
# Measurement setup: remark: other sources report otherwise
Reported metric: Trimeric HA Binding: RLU (RLU)

{"Binder": "TCN-552 (5249_I23) (antibody, V domains shown) VH: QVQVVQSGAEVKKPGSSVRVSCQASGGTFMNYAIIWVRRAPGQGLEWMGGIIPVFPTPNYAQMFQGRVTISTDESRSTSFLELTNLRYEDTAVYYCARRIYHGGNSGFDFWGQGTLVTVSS VL: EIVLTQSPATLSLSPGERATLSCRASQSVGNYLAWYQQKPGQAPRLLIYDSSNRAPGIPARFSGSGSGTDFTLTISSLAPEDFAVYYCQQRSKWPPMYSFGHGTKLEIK", "Reported metric": "Trimeric HA Binding: RLU", "Measurement units": "RLU", "Reported measurement": 46200}
{"Binder": "TCN-536 (5095_N01) (antibody, V domains shown) VH: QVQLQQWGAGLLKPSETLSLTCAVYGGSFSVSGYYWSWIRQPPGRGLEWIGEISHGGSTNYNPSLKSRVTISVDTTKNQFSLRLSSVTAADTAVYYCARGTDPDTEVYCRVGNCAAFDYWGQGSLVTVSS VL: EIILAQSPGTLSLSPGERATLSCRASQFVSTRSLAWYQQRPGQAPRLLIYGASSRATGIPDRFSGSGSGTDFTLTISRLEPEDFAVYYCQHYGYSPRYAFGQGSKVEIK", "Reported metric": "Trimeric HA Binding: RLU", "Measurement units": "RLU", "Reported measurement": 287}
{"Binder": "TCN-553 (5261_C18) (antibody, V domains shown) VH: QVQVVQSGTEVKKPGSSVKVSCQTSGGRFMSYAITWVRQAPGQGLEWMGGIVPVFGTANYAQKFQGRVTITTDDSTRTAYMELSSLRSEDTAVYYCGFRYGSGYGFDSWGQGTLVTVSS VL: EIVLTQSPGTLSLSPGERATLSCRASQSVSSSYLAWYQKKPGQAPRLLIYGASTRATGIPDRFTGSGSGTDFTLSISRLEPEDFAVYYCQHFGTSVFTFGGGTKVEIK", "Reported metric": "Trimeric HA Binding: RLU", "Measurement units": "RLU", "Reported measurement": 24200}

// provenance: patent US20150086555A1
